FYI, the data here is from patent WO2013139956A1.

# assay target: T1, peptide VFPSYTCTCLKGYA (SEQ ID NO:86), N-terminally biotinylated (human, cysteine pairing not given here)
# T1 peptide: Biotin-VFPSYTCTCLKGYA
# test description: ELISA, biotin-peptide on neutravidin plate, antibody 1 ug/ml
Ends that are not written are not given here. * marks the point of attachment. Biotin = O=C1N[C@H]2[C@H](CS[C@H]2CCCCC(=O)*)N1
reported endpoint: absorbance 450 nm minus 540 nm (absorbance)
Express your answer in absorbance, writing the number without its unit.

- binder: "anti-lactadherin antibody 215A9 (antibody, IgG1, V domains shown, also called 2154A9; hybridoma 215A9) VH: QVSLKESGPGILQSSQTLSLTCSFSGFSLSTSGMGVSWIRQPSGKGLEWLAHIYWNDDKRYNPSLKSRLTISKDTSRDQVFLKITSVDTADTATYFCARRPRFYRDYDEGIDFWGQGTTLTVSS VL: QAVVTQESALTTSPGETVTLTCRSSTGAVTTNNYANWVQEKPDHLFTGLIGGTNNRTPGVPARFSGSLIGDKAALTITGAQTEDEAIYFCALWYSNLWVFGGGTKLTVLG"
  measurement units: "absorbance"
  readout value: 0.05

Memo: anti-lactadherin antibody 311A7 (antibody, IgG1, V domains shown, also called murine 311A7; hybridoma 311A7) VH: EFQLQQSGPELVKPGASVRISCKASGYSFTDYNMNWVKQSDGKTLEWIGVINPDYGTTNNNQRFRGKATLTLDLSSSTAYMQLNSLTSEDSAVYYCARGGDYGAGYALDYWGQGTSVTVSS VL: QIVLTQSPAIMSASPGEKVTITCSASSSVSYMYWFQQKPGTSPKLWIYSTSNLASGVPARFSGSGSGTSYSLTISRMEAEDAATYYCQQRSSYPRTFGGGTKLEIKR , reported absorbance 450 nm minus 540 nm: 0.02

get_value(item= anti-lactadherin antibody 346B6 (antibody, IgG1, V domains shown, VH identical to that of 311A7; also called hybridoma 346B6; LMBP 9490CB) VH: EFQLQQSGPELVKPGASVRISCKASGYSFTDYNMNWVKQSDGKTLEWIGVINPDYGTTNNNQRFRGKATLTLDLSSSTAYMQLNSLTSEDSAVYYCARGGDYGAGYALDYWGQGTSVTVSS VL: QIVLTQSPAIMSASPGEKVTMTCSASSSVSYMYWYQQKPGSSPRLLIYDTSNLASGVPVRFSGSGSGTSYSLTISRMEAEDAATYYCQQWSSYPPTFGAGTKLELKR , readout=absorbance 450 nm minus 540 nm) returns 0.03

For this binder ( anti-lactadherin antibody 399A12 (antibody, V domains shown, Murine monoclonal, kappa light chain; Variable regions identical to those of 416H9; also called hybridoma 399A12; LMBP 9491CB) VH: QVTLKESGPGVLQSSQTLSLTCSFSGFSLSTSGLGVIWIRQPSGAGLEWLAQIYWDDNKRYNPSLKSRLTISKDTSRNQVFLKITPVDTADTATYYCARRTFYDYDEGFYAMDYWGQGTSVTVSS VL: DIQMTQTTSSLSASLGDRVTITCRASQDISNYLNWYQQKPDGTIKLLIYYASRLHSGVPSRFSGSGSGTDYSLTISNLEQEDIATYFCQQGNTLPLTFGAGTKLELKR ), measured absorbance 450 nm minus 540 nm is 0.03

The binder listed as huMc3 antibody (antibody, V domains shown) VH: EVQLVQSGAEVKKPGASVKVSCKASGYSFTGYTMHWVKQSPGMNLEWIGLINPYNGGTVYNQKFQDKATLTVDKSTSTAYMELSSLRSEDTAVYFCARRWRYTMDYWGQGTLVTVSS VL: DIVMTQSPDSLAVSLGERATITCKASQDVSIGVAWYQQKPGQSPKLLIYSASSRYTGVPDRFSGSGSGTDFTLTISSLQAEDVAVYYCQQHYTSPFTFGSGTKVEIK shows absorbance 450 nm minus 540 nm equal to 0.07

Briefly, absorbance 450 nm minus 540 nm measured for anti-lactadherin antibody 416H9 (antibody, IgG1, V domains shown, also called hybridoma 416H9; LMBP 9492CB) VH: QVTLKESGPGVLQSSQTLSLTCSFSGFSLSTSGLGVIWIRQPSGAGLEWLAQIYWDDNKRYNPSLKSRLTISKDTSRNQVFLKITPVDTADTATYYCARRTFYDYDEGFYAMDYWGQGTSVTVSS VL: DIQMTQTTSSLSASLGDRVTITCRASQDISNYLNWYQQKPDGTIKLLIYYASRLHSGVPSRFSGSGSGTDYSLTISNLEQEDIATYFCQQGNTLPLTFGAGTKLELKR : 0.03
